Every entry's value here was drawn from patent US9714245B2.

- System: secreted Aβ1-40
- ASSAY_COMMENT: Aβ1-40 secretion by APP-transfected neuroblastoma cells (ELISA)
- Type: cell-based
- PROTOCOL_CONDITIONS: Homo sapiens, Neuroblastoma cell; SKNSH-SYSY APPWT cells; concentration decreasing secreted Aβ1-40 to 50% of basal amount
IC50 listing for selected compounds.

These solved cases illustrate the format of a correct answer.
INSERT INTO assay_data (compound, measurement) VALUES
  ('CC(C)CN(CCCN1CCN(CCCN2CCc3c([nH]c4ccccc34)C2c2ccccc2)CC1)CC(C)C (stereo not shown)', '2 µM'),
  ('Fc1ccc2[nH]c3c(c2c1)CN(CCCN1CCN(CCCN(Cc2ccccc2)Cc2ccccc2)CC1)CC3', '2.5 µM'),
  ('CC(C)CN(CCCN1CCN(CCCN2CCc3[nH]c4ccccc4c3C2)CC1)CC(C)C', '1.2 µM');

In the following, a different compound is considered.
Recall the recorded IC50 for CC(C)CN(CCCN1CCN(CCCN2CCc3[nH]c4ccc(F)cc4c3C2)CC1)CC(C)C with secreted Aβ1-40 and state it.
1.2 µM
